Biological target: T1, MpAgo WT (Marinitoga piezophila, UniProt H2J4R4 1-639)
T1 sequence: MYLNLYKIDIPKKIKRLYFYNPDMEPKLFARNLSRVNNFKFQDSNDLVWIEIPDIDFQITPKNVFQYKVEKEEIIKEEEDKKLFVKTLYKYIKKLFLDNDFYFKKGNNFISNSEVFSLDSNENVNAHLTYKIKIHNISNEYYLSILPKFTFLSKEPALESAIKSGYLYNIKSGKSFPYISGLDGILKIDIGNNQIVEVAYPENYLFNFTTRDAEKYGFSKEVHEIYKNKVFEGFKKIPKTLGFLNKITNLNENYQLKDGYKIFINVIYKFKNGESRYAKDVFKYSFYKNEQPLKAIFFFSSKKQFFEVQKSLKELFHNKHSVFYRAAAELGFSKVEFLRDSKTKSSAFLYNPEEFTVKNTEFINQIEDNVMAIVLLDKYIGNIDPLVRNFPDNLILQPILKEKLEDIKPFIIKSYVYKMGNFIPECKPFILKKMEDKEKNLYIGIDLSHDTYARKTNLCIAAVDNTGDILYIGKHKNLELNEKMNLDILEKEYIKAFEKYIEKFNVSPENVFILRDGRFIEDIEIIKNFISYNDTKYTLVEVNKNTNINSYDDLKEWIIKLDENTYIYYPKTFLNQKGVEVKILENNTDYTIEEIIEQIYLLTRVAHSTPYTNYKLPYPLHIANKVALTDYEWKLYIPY
Assay: filter binding
Assignment: determine reported Kd for the given binders.
One number for each entry, in nM.

Below are worked cases with known answers.
{"binder": "UAUACAACCUACUACCUCAUU (ssRNA, 5'-OH) [gRNA 5'-rU]", "observed property": "Kd", "recorded measurement": 81}
{"binder": "GAUACAACCUACUACCUCAUU (ssRNA, 5'-OH) [gRNA 5'-rG]", "observed property": "Kd", "recorded measurement": 49}

Answer for every listed entry: what is its Kd? The entries follow.
1. AAUACAACCUACUACCUCAUU (ssRNA, 5'-OH) [gRNA 5'-rA]
2. CAUACAACCUACUACCUCAUU (ssRNA, 5'-OH) [gRNA 5'-rC]

Result:
1: 73; 2: 104
